# system_name: ScHsp82p (Saccharomyces cerevisiae, UniProt P02829)
# Construct: The HSP82 coding region was amplified using the primer pair HSP82-1fwd; 6xHis (N)
# Sequence (P02829 whole entry): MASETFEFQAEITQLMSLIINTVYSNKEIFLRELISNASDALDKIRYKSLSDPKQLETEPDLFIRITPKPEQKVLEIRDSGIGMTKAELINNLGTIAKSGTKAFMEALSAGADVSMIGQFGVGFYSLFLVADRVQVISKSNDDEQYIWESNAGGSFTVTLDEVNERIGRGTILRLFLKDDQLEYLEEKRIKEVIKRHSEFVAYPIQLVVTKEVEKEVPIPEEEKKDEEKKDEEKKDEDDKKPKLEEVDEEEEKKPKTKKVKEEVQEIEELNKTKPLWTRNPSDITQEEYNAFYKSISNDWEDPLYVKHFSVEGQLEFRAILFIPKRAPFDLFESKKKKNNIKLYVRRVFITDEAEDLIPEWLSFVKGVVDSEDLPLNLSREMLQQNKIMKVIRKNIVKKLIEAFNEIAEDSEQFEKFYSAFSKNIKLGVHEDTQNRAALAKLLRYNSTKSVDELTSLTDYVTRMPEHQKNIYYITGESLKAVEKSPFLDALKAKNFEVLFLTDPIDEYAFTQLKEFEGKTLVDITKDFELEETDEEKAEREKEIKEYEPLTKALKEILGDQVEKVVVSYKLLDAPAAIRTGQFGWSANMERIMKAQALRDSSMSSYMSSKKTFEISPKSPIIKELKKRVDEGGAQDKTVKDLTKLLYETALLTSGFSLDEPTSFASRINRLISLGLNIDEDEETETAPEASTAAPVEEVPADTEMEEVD
# assay_procedure: biochemical
# recorded_conditions: recombinant 6xHis ScHsp82p, 1 mM ATP, 37°C, 3 h; read-out: IC50, ATPase inhibition of ScHsp82p
measured_property: IC50

Request: Look at this compound and give its reported IC50. `C[C@H]1CCC[C@@H](O)CCC/C=C/c2cc(O)cc(O)c2C(=O)O1`
Result: ~15 µM

----------
# system_name: AtHSP90.1 (Arabidopsis thaliana)
# Construct: The coding region of AtHSP90.1 (At5g52640) was amplified from cDNA; 6xHis
# Sequence (P27323 whole entry): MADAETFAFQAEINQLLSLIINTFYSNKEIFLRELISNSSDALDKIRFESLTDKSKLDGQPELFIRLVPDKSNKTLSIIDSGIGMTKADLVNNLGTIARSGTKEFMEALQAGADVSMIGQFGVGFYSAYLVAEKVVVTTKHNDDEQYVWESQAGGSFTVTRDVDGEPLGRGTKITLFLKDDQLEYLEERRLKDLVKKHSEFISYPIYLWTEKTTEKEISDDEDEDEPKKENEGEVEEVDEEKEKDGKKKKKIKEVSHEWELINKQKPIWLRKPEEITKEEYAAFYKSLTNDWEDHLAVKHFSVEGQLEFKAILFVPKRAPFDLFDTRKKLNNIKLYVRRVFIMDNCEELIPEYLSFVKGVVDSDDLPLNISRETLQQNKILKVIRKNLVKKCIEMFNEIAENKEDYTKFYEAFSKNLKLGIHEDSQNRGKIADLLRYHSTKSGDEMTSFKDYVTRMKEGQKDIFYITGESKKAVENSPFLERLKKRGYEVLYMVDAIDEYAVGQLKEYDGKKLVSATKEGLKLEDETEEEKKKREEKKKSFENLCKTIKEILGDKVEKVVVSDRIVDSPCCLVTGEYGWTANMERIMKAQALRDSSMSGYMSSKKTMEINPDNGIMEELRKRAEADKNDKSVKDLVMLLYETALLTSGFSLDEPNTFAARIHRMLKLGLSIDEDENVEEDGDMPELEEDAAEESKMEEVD
# assay_procedure: HSP90 ATPase activity assay (malachite green), AtHSP90.1
measured_property: IC50

Request: // lookup IC50 | system=AtHSP90.1 (Arabidopsis thaliana) | key= `C[C@H]1CCCC(=O)CCC/C=C/c2cc(O)cc(O)c2C(=O)O1`
Result: ~10 µM
